We begin with a simple list: items and their reported Activity.
target: Telomerase reverse transcriptase (Homo sapiens) (UniProt O14746); test: Inhibition of human tert transcriptional activity assessed as SEAP activity at 10 uM after 24 hrs by SEAP reporter assay; parameters: scale not given: the % may be the effect or the level left
Sequence (O14746 whole entry): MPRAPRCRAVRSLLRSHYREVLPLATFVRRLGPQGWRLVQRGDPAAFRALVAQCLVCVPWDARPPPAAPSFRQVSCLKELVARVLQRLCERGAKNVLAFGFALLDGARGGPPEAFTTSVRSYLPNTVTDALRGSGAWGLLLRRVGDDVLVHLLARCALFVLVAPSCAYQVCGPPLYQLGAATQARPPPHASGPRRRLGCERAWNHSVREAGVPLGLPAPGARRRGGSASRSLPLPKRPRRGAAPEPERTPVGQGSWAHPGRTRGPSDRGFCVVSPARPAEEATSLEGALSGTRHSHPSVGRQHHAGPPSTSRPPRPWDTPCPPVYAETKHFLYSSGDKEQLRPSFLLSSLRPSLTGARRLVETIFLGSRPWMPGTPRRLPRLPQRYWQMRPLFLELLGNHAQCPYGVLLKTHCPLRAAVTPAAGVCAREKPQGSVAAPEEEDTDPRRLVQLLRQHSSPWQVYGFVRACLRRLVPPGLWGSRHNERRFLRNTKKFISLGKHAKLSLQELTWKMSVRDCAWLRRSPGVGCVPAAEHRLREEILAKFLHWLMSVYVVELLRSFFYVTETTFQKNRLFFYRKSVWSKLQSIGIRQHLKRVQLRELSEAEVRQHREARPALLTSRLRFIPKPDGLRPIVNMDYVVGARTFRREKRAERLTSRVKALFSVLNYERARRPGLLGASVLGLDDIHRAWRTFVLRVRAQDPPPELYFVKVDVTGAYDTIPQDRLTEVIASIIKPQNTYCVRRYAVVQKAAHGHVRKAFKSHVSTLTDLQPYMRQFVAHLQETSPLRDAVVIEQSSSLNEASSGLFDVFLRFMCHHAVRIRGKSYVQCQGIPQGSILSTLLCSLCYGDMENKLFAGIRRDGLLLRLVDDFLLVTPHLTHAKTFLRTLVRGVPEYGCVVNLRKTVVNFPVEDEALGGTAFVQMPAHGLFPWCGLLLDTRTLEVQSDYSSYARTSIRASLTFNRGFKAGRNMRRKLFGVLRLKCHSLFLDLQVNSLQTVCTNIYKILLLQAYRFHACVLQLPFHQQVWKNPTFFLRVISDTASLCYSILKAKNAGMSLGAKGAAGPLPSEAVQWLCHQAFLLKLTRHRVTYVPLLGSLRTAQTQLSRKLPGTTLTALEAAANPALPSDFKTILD
attributeMeasured: Activity (%)

| mol | attributeMeasured | recordedNumber |
| --- | --- | --- |
| C=CCSc1nc2ccc3c(c2[nH]1)C(=O)c1ccccc1C3=O | Activity | 91 |
| CCSc1nc2ccc3c(c2[nH]1)C(=O)c1ccccc1C3=O | Activity | 90 |
| O=C1c2ccccc2C(=O)c2c1ccc1nc(SCCC(=O)N3CCCC3)[nH]c21 | Activity | 90 |

###

biological target: Telomerase reverse transcriptase (Homo sapiens) (UniProt O14746); experiment: Inhibition of human tert transcriptional activity assessed as SEAP activity at 1 uM after 24 hrs by SEAP reporter assay; set-up: scale not given: the % may be the effect or the level left
# Activity annotations

| mol | targetSystem | Activity / % |
| --- | --- | --- |
| CN(C)CCCSc1nc2ccc3c(c2[nH]1)C(=O)c1ccccc1C3=O | Telomerase reverse transcriptase (Homo sapiens) (UniProt O14746) | 100 |
| CCN(CC)C(=O)Sc1nc2ccc3c(c2[nH]1)C(=O)c1ccccc1C3=O | Telomerase reverse transcriptase (Homo sapiens) (UniProt O14746) | 106 |
| CN1CCN(C(=O)Sc2nc3ccc4c(c3[nH]2)C(=O)c2ccccc2C4=O)CC1 | Telomerase reverse transcriptase (Homo sapiens) (UniProt O14746) | 89 |
| O=C1c2ccccc2C(=O)c2c1ccc1nc(SCCC(=O)N3CCCC3)[nH]c21 | Telomerase reverse transcriptase (Homo sapiens) (UniProt O14746) | 87 |
